Tested on: UACC-257 melanoma
TEST_METHOD_NOTES: NCI tumour cell line growth inhibition, 48 h; in the data active means GI50 below about 0.43 µM; inactive means the rest
Where a SMILES comes first, the peptide text is derived from it. [ ]: non-standard residue; d: D form. The star is where a group is joined. ξ: configuration not given here. NMeF = CN[C@@H](Cc1ccccc1)C(=O)O; NMeN = CN[C@@H](CC(N)=O)C(=O)O; NMeV = CN[C@H](C(=O)O)C(C)C; ξNMeV = CNC(C(=O)O)C(C)C; Boc = CC(C)(C)OC(=O)*; ξNMeA = CNC(C)C(=O)O; ξV = CC(C)C(N)C(=O)O
// classify into class 1 for active, class 0 for inactive

Exercise: What outcome does the record of this test show for CN1C(=O)C23CC4(C56CC78SSC(CO)(C(=O)N7C5Nc5ccccc56)N(C)C8=O)c5ccccc5NC4N2C(=O)C1(CO)SS3 (stereo unspecified) ?
Key: class 1

Exercise: What outcome does the record of this test show for CNC[C@@H](NC(=O)c1ccc(-c2nc([C@H]3CC[C@H](O)[C@@H](F)C3)cnc2N)cc1F)c1cc(F)cc(Br)c1 ?
Key: class 0

Exercise: What outcome does the record of this test show for Cc1cc(-c2ccc(C3C(C#N)=C(N)Oc4c3c(=O)oc3ccccc43)cc2)cnc1F (stereo unspecified) ?
Key: class 0

Exercise: What outcome does the record of this test show for c1ccc(-c2nc([P+](c3ccccc3)(c3ccccc3)c3ccccc3)c(N3CCOCC3)o2)cc1 ?
Key: class 1

Exercise: What outcome does the record of this test show for COC(=O)C(C)N(C)C(=O)[C@H](CC(N)=O)N(C)C(=O)[C@@H]1CCCN1C(=O)[C@H](C(C)C)N(C)C(=O)C(C(C)C)N(C)C(=O)[C@H](Cc1ccccc1)N(C)C(=O)C(NC(=O)OC(C)(C)C)C(C)C (stereo partly specified) (Boc-[ξV][NMeF][ξNMeV][NMeV]P[NMeN][ξNMeA]-OMe) ?
Key: class 0

Exercise: What outcome does the record of this test show for CC(C)CC(=O)[O-].CC(C)CC(=O)[O-].N.N.N.N.[Co+3].[O-][Cl+3]([O-])([O-])O.[O-][Cl+3]([O-])([O-])[O-] ?
Key: class 0

---

Provide the reported TGI of each item.
System: UO-31 renal
TEST_METHOD_NOTES: NCI tumour cell line growth inhibition, 48 h
The reply should be a number in µM, with the unit left off.

Exercise: Hello, please tell me recorded TGI for this one: Cc1n(Cc2ccc3ccccc3c2)c2ccccc2[n+]1Cc1ccc2ccccc2c1
Key: 2.87

Exercise: Hello, please tell me recorded TGI for this one: Cn1c2c(c3ccccc31)CCN(CCCN1CCN(c3cccc(Cl)c3)CC1)C2=O
Key: 32.6

Exercise: Hello, please tell me recorded TGI for this one: [O-][n+]1c2cc(CBr)c(CBr)cc2[n+]([O-])c2c(O)cccc21
Key: 4.56

Exercise: Hello, please tell me recorded TGI for this one: CCCCC(=O)Nc1ccc2cc(C(=O)OC)c(Cl)nc2n1
Key: 57.7

---

System: NCI-H522 lung
TEST_METHOD_NOTES: NCI tumour cell line growth inhibition, 48 h
Provide the reported log10 TGI of each item.
Remember, log10 of TGI, in µM.

Exercise: Hello, please tell me recorded log10 TGI for this one: COc1cccc(C=O)c1[O-].COc1cccc(C=O)c1[O-].[Cu+2]
Key: 1.29

Exercise: Hello, please tell me recorded log10 TGI for this one: O=C(c1cccs1)c1c(C(F)(F)F)n([O-])c2ccc(Cl)cc2[n+]1=O
Key: 0.78

Exercise: Hello, please tell me recorded log10 TGI for this one: COc1c(O)ccc(C2=Cc3ccc(O)cc3OC2)c1OC
Key: 1.21

Exercise: Hello, please tell me recorded log10 TGI for this one: Nc1ccc(C(=O)N/C(=C\c2cccc([N+](=O)[O-])c2)c2nc3ccccc3[nH]2)cc1
Key: 1.99

Exercise: Hello, please tell me recorded log10 TGI for this one: CS(=O)(=O)c1ccc(NNc2cc(=O)[nH]c(=O)[nH]2)cc1
Key: 1.60

Exercise: Hello, please tell me recorded log10 TGI for this one: CC(=O)O[C@H]1[C@@H]2OC(=O)C3(CC3)C2C[C@H]2O[C@]2(C)CC/C=C(\C)CCC[C@@H]1C (stereo not given in full)
Key: 1.68

Exercise: Hello, please tell me recorded log10 TGI for this one: COC(=O)C1C(O)C(C)C(O)C(C)(O)/C=C/C=C(C)C(=O)Nc2c(C)c(OC(C)=O)c3c(c2O)C(=O)C(C)=C2OCOC(=C23)C(C)=CC(C)(O)C(O)C(C)C1OC(C)=O (stereo not given)
Key: 1.75

Exercise: Hello, please tell me recorded log10 TGI for this one: CN1CCN(Cc2ccc(NC(=O)c3cncc(C#Cc4cnc5ccc(Cl)nn45)c3)cc2C(F)(F)F)CC1
Key: 0.44

Exercise: Hello, please tell me recorded log10 TGI for this one: O=C1c2ccccc2OCC1/C=N/O (stereo not given)
Key: 1.79
